- Tested on: Brassica rapa subsp. oleifera
- ASSAY_EXPLANATION: Herbicidal activity against Brassica rapa subsp. oleifera assessed as inhibition effect at 1500 g/ha sprayed soil immediately after seed planting
- Format: functional
PROPERTY_LABEL: inhibition at 1500 g/ha (%)
The figure you give is taken to be in %; do not add the unit.

Use the examples below as a reference point.
[
  {
    "SMILES_STRUCTURE": "CCOC(=O)/C(C#N)=C(/Nc1ccc(C(F)(F)F)cc1)N[C@H](C)c1ccccc1",
    "inhibition at 1500 g/ha / %": 16.1
  },
  {
    "SMILES_STRUCTURE": "CCOC(=O)/C(C#N)=C(/Nc1ccc([N+](=O)[O-])cc1)N[C@@H](C)c1ccccc1",
    "inhibition at 1500 g/ha / %": 25
  },
  {
    "SMILES_STRUCTURE": "CCOC(=O)/C(C#N)=C(/NNC(=O)c1cc(OC)c(OC)c(OC)c1)N[C@@H](C)c1ccccc1",
    "inhibition at 1500 g/ha / %": 0
  }
]

// lookup inhibition at 1500 g/ha for CCOC(=O)/C(C#N)=C(/NNC(=O)c1cc(OC)c(OC)c(OC)c1)N[C@H](C)c1ccccc1
0

// lookup inhibition at 1500 g/ha for CCOC(=O)/C(C#N)=C(/Nc1ccc(C(F)(F)F)cc1)N[C@@H](C)c1ccccc1
21.4
